# System: SN12C renal
# assayProcedure: NCI-60 one-dose screen, 48 h (100 = growth as untreated, 0 = no growth, -100 = all killed)
# recordedConditions: 10 µM unless noted
Compounds without any hit were thinned out: in the full panel of roughly 83,000, 20% have a hit.
Entries whose growth is below 90% take true (1); entries at or above 90% take false (0).

[
  {
    "compound": "COc1cccc(-c2nc3sccn3c2/C=C/C(=O)c2ccc(C(F)(F)F)cc2)c1",
    "testedTarget": "SN12C renal",
    "assignedLabel": "true (1)"
  },
  {
    "compound": "Cc1cccc(-c2nc(N(C)c3ccc4ncsc4c3)c3ccccc3n2)n1",
    "testedTarget": "SN12C renal",
    "assignedLabel": "false (0)"
  },
  {
    "compound": "COc1ccc(C2c3ccc4ccccc4c3Oc3nc(C)[nH]c(=O)c32)cc1 (stereo unspecified)",
    "testedTarget": "SN12C renal",
    "assignedLabel": "false (0)"
  },
  {
    "compound": "Cc1ccc(S(=O)(=O)N/N=C\\c2cc(Cl)ccc2O)cc1",
    "testedTarget": "SN12C renal",
    "assignedLabel": "false (0)"
  },
  {
    "compound": "COC(=O)[C@]12CC[C@@H](C)[C@H](C)[C@@H]1C1=CC[C@@H]3[C@@]4(C)C(C=O)=C[C@@](C)(COS(C)(=O)=O)C4[C@H](O)C[C@@]3(C)[C@]1(C)CC2 (stereo partly specified)",
    "testedTarget": "SN12C renal",
    "assignedLabel": "true (1)"
  },
  {
    "compound": "Cc1ccc(/C=C/c2c(C(=O)/C=C/c3ccc(Cl)cc3)c(C)nc3ccccc23)cc1",
    "testedTarget": "SN12C renal",
    "assignedLabel": "true (1)"
  }
]
